Here, molecules appear alongside log10 IC50 reported for Collagenase 3 (Homo sapiens) in the literature.
Units before log transform: nM; reported quantity: IC50; transform: log10.

- molecule: "Nc1ccc(S(=O)(=O)NC(P(=O)(O)O)P(=O)(O)O)cc1"
  target or test system: "Collagenase 3 (Homo sapiens)"
  recorded value: 4.84
- molecule: "O=[N+]([O-])c1ccc2nc(NC(P(=O)(O)O)P(=O)(O)O)sc2c1"
  target or test system: "Collagenase 3 (Homo sapiens)"
  recorded value: 3.35
- molecule: "O=C(O)c1csc(CN(Cc2ccncc2)Cc2ccc(OCc3ccccc3)cc2)n1"
  target or test system: "Collagenase 3 (Homo sapiens)"
  recorded value: 3.18
- molecule: "O=C(O)CCCCCOc1cccc(CC(=O)Nc2ccc3c(c2)C(=O)N(Cc2ccccc2)C3=O)c1"
  target or test system: "Collagenase 3 (Homo sapiens)"
  recorded value: 2.45

Entry O=C(O)C(c1ccccc1)N(Cc1ccc(OCc2ccccc2)cc1)Cc1cccc(F)c1 (stereo not drawn) , tested on Collagenase 3 (Homo sapiens), has a reported log10 IC50 of 3.41

Entry "O=C(Nc1ccc(S(=O)(=O)NC(P(=O)(O)O)P(=O)(O)O)cc1)c1ccccc1" , tested on Collagenase 3 (Homo sapiens), has a reported log10 IC50 of 3.30

Entry "O=C1c2ccccc2C(=O)N1c1ccc2nc(NC(P(=O)(O)O)P(=O)(O)O)sc2c1" , tested on Collagenase 3 (Homo sapiens), has a reported log10 IC50 of 4.04

Entry "O=C(Nc1ccc(S(=O)(=O)NC(P(=O)(O)O)P(=O)(O)O)cc1)c1ccc([N+](=O)[O-])cc1" , tested on Collagenase 3 (Homo sapiens), has a reported log10 IC50 of 2.79
